Experiment: plasmodial surface anion channel blockers, osmotic lysis – cell-based, P. falciparum Indochina, OD700, 2 h, primary screen (AID 1155);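 further: lysis reports solute entry through the parasite surface anion channel PSAC; channel blockers reduce lysis of infected cells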
Conditions: P. falciparum Indochina infected erythrocytes, higher = more signal, called active from +8 up or from −8 down
The source made the active and inactive calls.

| MOLECULE | z-score |
| --- | --- |
| C=CC[C@]1(C(=O)N2CCOCC2)N=C(c2ccc(OCCCO)cc2)O[C@H]1c1ccccc1N=[N+]=[N-] | 29.5 (active) |
| [N-]=[N+]=Nc1ccccc1[C@H]1OC(c2ccc(OCCCO)cc2)=N[C@@]1(Cc1ccccc1)C(=O)N1CCOCC1 | 30.6 (active) |
| C=C(CCCC)/C(=C/C[C@@H](OC(C)=O)c1ccccc1OCCO)c1cc(C(=O)OC)ccc1OC | 11.2 (active) |
| COCCOC(=O)N1C(=O)[C@@]2(c3ccccc31)[C@H](C(N)=O)[C@H]1C(=O)O[C@H](c3ccccc3)[C@H](c3ccccc3)N1[C@@H]2c1ccc(O)cc1 | -1.28 (inactive) |
| CC(=CC1CCCCC1)[C@@H](NC(=O)c1cccnc1)c1ccc(-c2ccccc2)cc1 | 0.943 (inactive) |
| NC(=O)[C@@H]1[C@H]2C(=O)O[C@H](c3ccccc3)[C@H](c3ccccc3)N2[C@H](c2ccc(O)cc2)[C@@]12C(=O)Nc1ccc(C#CC3=CCCCC3)cc12 | 1.07 (inactive) |
| O=C1O[C@H](c2ccccc2)[C@H](c2ccccc2)N2[C@H]1[C@@H](C(=O)NC[C@H](O)c1ccccc1)[C@]1(C(=O)Nc3ccccc31)[C@H]2c1ccc(O)cc1 | 1.29 (inactive) |
| C=CCC(OC(C)=O)[C@@H]1[C@@H](N(Cc2ccc(-c3cccc(C(F)(F)F)c3)o2)C(=O)Cc2ccc(OC)cc2)c2cc(OCCCO)ccc2N1C(=O)c1ccc2ccccc2c1 (stereo not given in full) | 1.01 (inactive) |
| CC=CC(O)C1C=CC2C(=O)N(C)C(=O)C2N1N(c1ccccc1)c1ccccc1 (stereo not given) | 0.603 (inactive) |
| O=C(CS)NCCCCCNC(=O)[C@H]1C[C@H]2C(=O)NCC(=O)N2[C@H]1c1cccc(OCCO)c1 | -0.851 (inactive) |
| CCCCN1CC=CC23O[C@@H]4C=CCOC(=O)[C@@H]4[C@H]2C(=O)N(CCCCCCO)[C@@H]3C1=O (stereo not given in full) | 0.393 (inactive) |
| CCOc1cc(C(O)C2C=CC3C(=O)N(c4ccccc4)C(=O)C3N2Nc2ccc(C(C)C)cc2)ccc1O (stereo not given) | 1.8 (inactive) |
| O=C1[C@H]2C=C(Br)[C@H](C[C@@H]2OCCCCCCO)[C@@]12CO2 | 0.318 (inactive) |
| O=C(CS)NCCCCCNC(=O)[C@H]1C[C@H]2C(=O)NCC(=O)N2[C@H]1c1ccc(O)cc1 | -0.723 (inactive) |
| CCCC(=O)N(CCc1c[nH]c2ccccc12)[C@@H]1CC(C(=O)NCCO)=C[C@H](Oc2c(I)cc(CO)cc2OC)[C@H]1O | 1.47 (inactive) |

###

Test: binders from COS7 lysate, DM2A8 probe, primary screen, torsin A project, cell lysate, small-molecule microarray, fluorescence 635/667 (AID 1065)
Conditions: higher = more signal, COS7 lysate expressing mutant human TOR1A
We begin with a simple list: items and their reported composite z-score.

| COMPOUND | composite z-score |
| --- | --- |
| Cc1ccc(S[C@]2(C(=O)O)CC(=O)N(C(C)C)[C@@H]2c2ccc(CO)cc2)cc1 | 0.552 |
| COCCCNC(=O)[C@@]1(Sc2ccc(C)cc2)CC(=O)N(Cc2ccccc2Cl)[C@@H]1c1ccc(CO)cc1 | 2.15 |
| CCCCC(O)C1C=CC2C(=O)N(C)C(=O)C2N1N1CCCCC1 (stereo unspecified) | 0.314 |
| CC(C)OC(=O)C=C1C[C@@H](c2cccc(Cl)c2)O[C@@H](c2cccc(Cl)c2)O1 | 0.31 |
| C=CCC(OC(C)=O)[C@@H]1[C@@H](N(Cc2ccc(-c3cccc(C(F)(F)F)c3)o2)C(=O)Cc2ccc(OC)cc2)c2cc(OCCCO)ccc2N1C(=O)c1ccc2ccccc2c1 (stereo partly specified) | -0.404 |
| C=C(CCCC)C(=O)CC[C@@H](OC(C)=O)c1ccc(CO)o1 | 0.349 |
| COc1cc2c(cc1OC)CN(C(=O)[C@H]1[C@@H]3C(=O)O[C@@H](c4ccccc4)[C@@H](c4ccccc4)N3[C@@H](c3ccccc3OCCO)[C@]13C(=O)Nc1ccc(C#CCCO)cc13)CC2 | 0.282 |
| CCCCN1CC=CC23O[C@@H]4C=CCCOC(=O)C4[C@H]2C(=O)N(CCCCCO)[C@@H]3C1=O (stereo partly specified) | -0.055 |
| O=C1C2C=CC(C(O)c3c(F)cccc3Cl)N(Nc3ccccc3F)C2C(=O)N1c1ccccc1 (stereo unspecified) | 0.374 |
| Cc1c(NC(=O)/C(C#N)=C/c2cccc([N+](=O)[O-])c2)c(=O)n(-c2ccccc2)n1C | 0.322 |
| CC=CC(O)C1C=CC2C(=O)N(C)C(=O)C2N1N(c1ccccc1)c1ccccc1 (stereo unspecified) | 0.273 |
| COC(=O)c1c(CC[C@@H](CO)NC(=O)NCCc2c[nH]c3ccccc23)oc(C(=O)Cc2ccccc2)c1C(=O)OC | 0.488 |
| CC[C@@H]1C=C(C(=O)O)[C@H](c2ccc(C)cc2)N1S(=O)(=O)c1ccc(C)cc1 | 0.719 |
| CCOC(=O)C[C@H]1[C@H](OC(=O)c2ccc(-c3ccccc3)cc2)[C@@H](NC(=O)c2ccccc2)c2cc(OCCCO)ccc2N1C(=O)c1ccc2ccccc2n1 | 0.732 |
| O=C1C2C=CC(C(O)COCc3ccccc3)N(Nc3ccc([N+](=O)[O-])cc3)C2C(=O)N1c1ccccc1 (stereo unspecified) | -0.58 |
| Cc1ccc(S(=O)(=O)N2C[C@@H](C(=O)O)[C@H](Sc3ccccc3)C[C@H]2c2ccccc2)cc1 | 0.57 |

Reference source: PubChem BioAssay
